endpoint: melting point

- molecule: "CCCn1c2c(c(=O)[nH]c1=O)C(c1ccc(OC)cc1)c1c(n(CCC)c(=O)[nH]c1=O)N2 [Compound 6c]"
  melting point: "180 to 181 °C"
- molecule: "CCn1c2c(c(=O)[nH]c1=S)C(c1ccc([N+](=O)[O-])cc1)c1c(n(CC)c(=S)[nH]c1=O)N2 [Compound 6b]"
  melting point: "251 to 252 °C"
- molecule: "CCn1c(N)c(C(c2ccc(C)cc2)c2c(N)n(CC)c(=S)[nH]c2=O)c(=O)[nH]c1=S [Compound 5b]"
  melting point: "239 to 240 °C"
- molecule: "CCn1c(N)c(C(c2ccc(Cl)cc2Cl)c2c(N)n(CC)c(=S)[nH]c2=O)c(=O)[nH]c1=S [Compound 5d]"
  melting point: "272 to 273 °C"
- molecule: "CCCn1c(N)c(C(c2ccc(OC)cc2)c2c(N)n(CCC)c(=O)[nH]c2=O)c(=O)[nH]c1=O [Compound 5l]"
  melting point: "289 to 290 °C"

Note melting point for the molecule shown: CCn1c(=S)[nH]c(=O)c2c(-c3ccc(Cl)cc3)c3c(=O)[nH]c(=S)n(CC)c3nc21 [Compound 7a] 224 to 225 °C

Note melting point for the molecule shown: CCn1c2c(c(=O)[nH]c1=S)C(c1ccccc1)c1c(n(CC)c(=S)[nH]c1=O)N2 [Compound 6a] 255 to 256 °C

Note melting point for the molecule shown: CCn1c(N)c(C(c2ccc([N+](=O)[O-])cc2)c2c(N)n(CC)c(=S)[nH]c2=O)c(=O)[nH]c1=S [Compound 5f] 274 to 275 °C

Note melting point for the molecule shown: CCn1c(N)c(C(c2ccc(Cl)cc2)c2c(N)n(CC)c(=S)[nH]c2=O)c(=O)[nH]c1=S [Compound 5c] > 300 °C

Note melting point for the molecule shown: CCn1c(=S)[nH]c(=O)c2c(-c3ccc(OC)cc3)c3c(=O)[nH]c(=S)n(CC)c3nc21 [Compound 7b] 221 °C

Note melting point for the molecule shown: CCn1c(N)c(C(c2cccs2)c2c(N)n(CC)c(=S)[nH]c2=O)c(=O)[nH]c1=S [Compound 5g] 271 to 272 °C

###

Tested on: colorectal carcinoma (HCT-116)
test.summary: MTT anti-proliferative assay, HCT-116
Format: cell-based
run.parameters: Homo sapiens, HCT-116, read-out: Cytotoxicity IC50 HCT-116
pIC50: −log10 of the molar value.
Is pIC50 at least 4? Then satisfied. If not, not satisfied.

- smiles.str: "CCn1c2c(c(=O)[nH]c1=S)C(c1ccc([N+](=O)[O-])cc1)c1c(n(CC)c(=S)[nH]c1=O)N2"
  discrete.label: "not satisfied"
- smiles.str: "CCn1c(N)c(C(c2cccs2)c2c(N)n(CC)c(=S)[nH]c2=O)c(=O)[nH]c1=S"
  discrete.label: "satisfied"
- smiles.str: "CCn1c(N)c(C(c2ccc(Cl)cc2Cl)c2c(N)n(CC)c(=S)[nH]c2=O)c(=O)[nH]c1=S"
  discrete.label: "not satisfied"
- smiles.str: "CCCn1c(N)c(C(c2ccccc2)c2c(N)n(CCC)c(=O)[nH]c2=O)c(=O)[nH]c1=O"
  discrete.label: "satisfied"
- smiles.str: "CCCn1c2c(c(=O)[nH]c1=O)C(c1ccc(OC)cc1)c1c(n(CCC)c(=O)[nH]c1=O)N2"
  discrete.label: "not satisfied"

Does CCn1c(=S)[nH]c(=O)c2c(-c3ccc(OC)cc3)c3c(=O)[nH]c(=S)n(CC)c3nc21 have a reported pIC50 of at least 4? not satisfied
